- target.or.test.system: human GnRH receptor (Homo sapiens)
- Construct: expressed in transfected cells; host or cells: HEK 293 (hGnRH-R/293, from Dr. Stuart Sealfon)
- Sequence (P30968 whole entry): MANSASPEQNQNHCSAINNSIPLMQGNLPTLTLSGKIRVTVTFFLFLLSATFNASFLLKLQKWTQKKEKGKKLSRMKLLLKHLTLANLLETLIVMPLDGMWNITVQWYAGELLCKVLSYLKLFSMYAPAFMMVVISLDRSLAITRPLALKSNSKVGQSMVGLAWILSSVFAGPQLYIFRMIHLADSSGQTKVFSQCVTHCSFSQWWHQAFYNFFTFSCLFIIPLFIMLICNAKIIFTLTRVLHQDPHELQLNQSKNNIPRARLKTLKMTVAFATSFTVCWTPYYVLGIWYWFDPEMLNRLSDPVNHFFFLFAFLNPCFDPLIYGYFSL
- experiment.notes: Radioligand binding, 125I-GnRH-A displacement, membranes of HEK 293 cells with human GnRH receptor
- condition.summary: read-out: hGnRH IC50
metric.name: pIC50
Answer as the number alone; pIC50 is minus log10 of concentration in mol/L.

// worked examples, pIC50 included
COC(CNC(=O)c1ccc(Cc2cc3c(cc2C)C(C)(C)CCC3(C)C)o1)OC [Compound 196]: 6.12
Cc1cc2c(cc1Cc1ccc(C(=O)NCC3CCNCC3)o1)C(C)(C)CCC2(C)C: 6.06

Consider the record given below.
pIC50 reading for `CCCc1nc(NC(=O)c2ccc(Cc3cc4c(cc3C)C(C)(C)CCC4(C)C)o2)ncc1C(=O)OCC` : 6.11
